# assaySystem: RYK
# methodNotes: pooled miR-30 sensor sort-seq; sequence = guide strand; further: reference of the scale not given here
# conditionContext: shRNA
Kind request: treat -0.5 as inclusive, so sensor-assay potency score (higher = more potent) at -0.5 or higher is condition met, anything lower is condition not met.

These recorded examples may help you get a feel for the data.
orderedResidues: TTGTATTATCTCCTTTTCCAGA
group: condition not met
--
orderedResidues: TTACTGCACAACAAACCCCTAC
group: condition not met
--
orderedResidues: TTTCATACTATGAAGGTGCAAA
group: condition met
--
orderedResidues: TTGTAGCACATTTTCCTTCGTT
group: condition met

Switching to the query record.
Confirm if sensor-assay potency score (higher = more potent) reported for the sequence TTTTTGTAGCACATTTTCCTTC is -0.5 or above.
condition met

###

# assaySystem: TBC1D10A
# methodNotes: pooled miR-30 sensor sort-seq; sequence = guide strand
# conditionContext: shRNA
Hi all, reminder that labels come from sensor-assay potency score (higher = more potent), split as bin 1 (below -1), bin 2 (-1 to below -0.2), bin 3 (-0.2 or more)

These recorded examples may help you get a feel for the data.
orderedResidues: TTGGGGGCTGAGTCCTTCGGGG
group: bin 1
//
orderedResidues: TTGTTGAGCATGTCCAGCCACT
group: bin 1
//
orderedResidues: TCACAGAAGAACATGTCCCAGA
group: bin 2
//
orderedResidues: TTCTGCTGTAACTTCACCTTGC
group: bin 3

Which class is correct for the following sequence? TTCACAGAAGAACATGTCCCAG
bin 2

Which class is correct for the following sequence? ATCGCCTCCAGTTTCTCGCTGT
bin 2

Which class is correct for the following sequence? TTGCTCAGCAGGCATATGCATG
bin 1

Which class is correct for the following sequence? TTTTACACAAAGAACACCCCAC
bin 3

###

# assaySystem: TMEM200C
# methodNotes: pooled miR-30 sensor sort-seq; sequence = guide strand
# conditionContext: shRNA
propertyMeasured: sensor-assay potency score (higher = more potent)
Answers are plain numbers.

Example entries and their recorded answers appear below.
orderedResidues: TTCTTGTCCCGGTTCTCGTGGA
assaySystem: TMEM200C
recordedResult: -0.413

orderedResidues: ATTTTGGTCTTCTTGTCCCGGT
assaySystem: TMEM200C
recordedResult: -0.495

orderedResidues: TCCAGTTCTTCTTCTACCCCTA
assaySystem: TMEM200C
recordedResult: -0.433

orderedResidues: TTTGCTGCCACTGCTACTGCTG
assaySystem: TMEM200C
recordedResult: -0.287

orderedResidues: TTTTGGTCTTCTTGTCCCGGTT
assaySystem: TMEM200C
recordedResult: -1.07

orderedResidues: TTGGCTTTCCGCTTGCGCTTGG
assaySystem: TMEM200C
recordedResult: 0.0739

The recorded sensor-assay potency score (higher = more potent) for entry AATCATGATGAGTTTCTCCTTG equals -0.235

###

Assign sensor-assay potency score (higher = more potent) to each entry below.
# assaySystem: KIAA1217
# methodNotes: pooled miR-30 sensor sort-seq; sequence = guide strand
# conditionContext: shRNA
One number for each entry.

Example entries and their recorded answers appear below.
orderedResidues: TGAACTTCCATTCTGTGCCTTG
recordedResult: 0.302
//
orderedResidues: TACACTTTGAGGAGTGATCTGT
recordedResult: 0.221
//
orderedResidues: TTTCTCGATAGACACTGCCCTG
recordedResult: -1.06
//
orderedResidues: TTGAACTTCCATTCTGTGCCTT
recordedResult: 0.894
//
orderedResidues: TTCTCGATAGACACTGCCCTGT
recordedResult: -0.436
//
orderedResidues: TAGTGATCCAGATTTTGCCTTT
recordedResult: -0.121

Proceeding to the next sequence to report its sensor-assay potency score (higher = more potent).
The recorded sensor-assay potency score (higher = more potent) for entry TTTTTGTCTCTCTTGCTCCACT equals -0.52
